# target-entity: human Cystic Fibrosis Transmembrane Conductance Regulator (CFTR) harboring the ΔF508 mutation (Homo sapiens, UniProt P13569, DEL508-508)
# Sequence (P13569 with tags, fused parts or gaps DEL508-508): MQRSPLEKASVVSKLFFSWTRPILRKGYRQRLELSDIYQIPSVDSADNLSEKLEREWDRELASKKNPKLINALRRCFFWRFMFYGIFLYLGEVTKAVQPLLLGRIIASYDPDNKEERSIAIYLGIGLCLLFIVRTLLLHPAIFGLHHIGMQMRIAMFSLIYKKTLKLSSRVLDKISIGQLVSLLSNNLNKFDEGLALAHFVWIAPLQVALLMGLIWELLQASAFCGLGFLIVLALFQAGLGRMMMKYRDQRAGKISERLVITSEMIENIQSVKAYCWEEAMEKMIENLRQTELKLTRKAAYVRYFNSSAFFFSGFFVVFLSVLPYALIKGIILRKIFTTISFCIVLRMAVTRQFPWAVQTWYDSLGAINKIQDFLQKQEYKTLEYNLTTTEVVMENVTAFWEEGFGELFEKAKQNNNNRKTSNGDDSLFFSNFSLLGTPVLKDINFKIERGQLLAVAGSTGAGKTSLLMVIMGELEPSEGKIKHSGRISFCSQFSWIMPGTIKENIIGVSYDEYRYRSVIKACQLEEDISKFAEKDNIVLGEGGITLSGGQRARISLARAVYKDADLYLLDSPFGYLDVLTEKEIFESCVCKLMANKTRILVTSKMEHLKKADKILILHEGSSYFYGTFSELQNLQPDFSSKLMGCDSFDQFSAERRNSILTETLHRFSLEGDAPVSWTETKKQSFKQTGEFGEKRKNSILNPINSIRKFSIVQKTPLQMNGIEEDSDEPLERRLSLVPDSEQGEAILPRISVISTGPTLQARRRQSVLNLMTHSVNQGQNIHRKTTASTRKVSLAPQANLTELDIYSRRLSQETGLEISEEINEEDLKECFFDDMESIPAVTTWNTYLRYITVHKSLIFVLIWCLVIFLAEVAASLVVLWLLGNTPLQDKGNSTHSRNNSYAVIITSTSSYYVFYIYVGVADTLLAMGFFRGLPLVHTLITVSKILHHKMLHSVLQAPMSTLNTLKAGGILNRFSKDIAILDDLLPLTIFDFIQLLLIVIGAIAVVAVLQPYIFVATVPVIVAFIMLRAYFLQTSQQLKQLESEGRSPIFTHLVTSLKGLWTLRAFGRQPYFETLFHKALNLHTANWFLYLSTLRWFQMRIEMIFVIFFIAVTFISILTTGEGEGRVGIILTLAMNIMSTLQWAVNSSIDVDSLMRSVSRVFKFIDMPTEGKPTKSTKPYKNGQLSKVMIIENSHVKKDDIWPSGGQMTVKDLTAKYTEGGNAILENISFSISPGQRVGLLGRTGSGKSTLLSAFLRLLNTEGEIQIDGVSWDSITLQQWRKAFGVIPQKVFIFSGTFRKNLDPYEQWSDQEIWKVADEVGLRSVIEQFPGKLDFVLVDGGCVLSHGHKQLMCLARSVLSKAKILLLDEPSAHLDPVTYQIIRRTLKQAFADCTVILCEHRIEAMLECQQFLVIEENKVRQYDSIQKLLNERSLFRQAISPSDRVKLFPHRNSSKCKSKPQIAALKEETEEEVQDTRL
# experimental-protocol: H441 cell ΔF508-CFTR-HRP cell surface assay (Emax and EC50)
pEC50: −log10 of the molar value.
measure: pEC50

compound	pEC50
CCCC(C)(C)[C@H](NC(=O)c1ccc2ccc(C(F)F)cc2c1OCc1ccc(C(F)(F)F)cc1)C(=O)O	7.00
CC1(C(NC(=O)c2ccc3ccccc3c2OC[C@H]2CC[C@@H](C(F)(F)F)CC2)C(=O)O)CCCCC1 (stereo partly drawn)	4.81
O=C(NC(C(=O)O)C(C(F)(F)F)C(F)(F)F)c1ccc2ccccc2c1OCc1ccc(C(F)(F)F)cc1 (stereo not drawn)	4.86
CCC(C)(C)[C@H](NC(=O)c1ccc2ccc(Cl)cc2c1OCc1ccc(C(F)(F)F)cc1)C(=O)O	6.70
CC(C)(C)C[C@H](NC(=O)c1ccc2ccccc2c1OC[C@H]1CC[C@@H](C(F)(F)F)CC1)C(=O)O	5.00

A. C#CC(C)(C)C(NC(=O)c1ccc2ccccc2c1OCc1ccc(C(F)(F)F)cc1)C(=O)O (stereo not drawn)
B. CCC(C)(C)[C@H](NC(=O)c1ccc2ccccc2c1OCc1ccc(SC(F)(F)F)cc1)C(=O)O
C. COc1ccc2c(OCc3ccc(C(F)(F)F)cc3)c(C(=O)N[C@@H](CC(C)(C)C)C(=O)O)ccc2c1
D. Cc1cc2c(OCc3ccc(C(F)(F)F)cc3)c(C(=O)N[C@H](C(=O)O)C(C)(C)C)ccc2cc1F
q: Task field, ranking: reported pEC50, descending order. Sort and list the labels as requested.
a: D, B, A, C

A. CC1(C(NC(=O)c2ccc3cc(F)ccc3c2OCc2ccc(C(F)(F)F)cc2)C(=O)O)CC1 (stereo not drawn)
B. CC(C)(C)C[C@H](NC(=O)c1ccc2cc(N)ccc2c1OCc1ccc(C(F)(F)F)cc1)C(=O)O
q: Between these two entries, A and B , state which has the higher pEC50. API: response body contains the label of the selected item.
a: A

I. CC(C)(C)[C@H](NC(=O)c1ccc2cc(O)ccc2c1OCc1ccc(C(F)(F)F)cc1)C(=O)O
II. CC(C)(c1ccccc1)[C@H](NC(=O)c1ccc2ccccc2c1OCc1ccc(SC(F)(F)F)cc1)C(=O)O
q: Between these two entries, I and II , state which has the higher pEC50. API: response body contains the label of the selected item.
a: II

P. CC(C)(C)C#CCOc1c(C(=O)N[C@H](C(=O)O)C(C)(C)C)ccc2ccccc12
Q. CCC(C)(C)[C@H](NC(=O)c1ccc2ccccc2c1OCc1ccc(S(C)(=O)=O)cc1)C(=O)O
q: Between these two entries, P and Q , state which has the higher pEC50. API: response body contains the label of the selected item.
a: P
(P: 5.47, Q: 4.64)

* * *

# target-entity: human Cystic Fibrosis Transmembrane Conductance Regulator (CFTR) harboring the ΔF508 mutation (Homo sapiens, UniProt P13569, DEL508-508)
# Construct: expressed in transfected cells; host or cells: H441 carcinoma line (G418-selected)
# experimental-protocol: H441 cell ΔF508-CFTR-HRP cell surface assay (Emax and EC50)
# Format: cell-based
# condition-notes: NCI-H441, NA = Not active
measure: Emax (%)

1. CC(C)(C)[C@H](NC(=O)c1ccc2ccc(Br)cc2c1OCc1ccc(C(F)(F)F)cc1)C(=O)O
2. Cc1cc(COc2c(C(=O)NC(C(=O)O)[C@@H](C)OCc3ccccc3)ccc3ccccc23)no1 (stereo partly shown)
3. O=C(N[C@H](Cc1ccccc1)C(=O)O)c1ccc2ccccc2c1OCc1ccc(C(F)(F)F)cc1
q: Parameters: sort_field (Emax), sort_dir (desc). Sort and list the labels as requested.
a: 1, 2, 3
(1: 296%, 2: 72.6%, 3: 47.6%)
